# measured-on: T1, cTnI quality control product recombinant protein (human, UniProt P19429 1-210, limits assumed)
# T1 construct: the assay paragraphs only say cTnI; also called cardiac troponin I; cTnI antigen
# method-summary: capture ELISA, antibody 4.115 ng/ml, cTnI 0.15 ug/ml
measurement-type: OD 450 nm (OD)
The reply should contain only the number, in OD.

Input Mutation 2 (antibody, V domains shown, other CDR sites as WT) VH: QVQLQQSGTELAKPGASVKFSCKASLYTFSTYWMYWIKQRPGQGLEWIGYLNPSSGHTEYNQRFKDKATLTADKSSSTAYMQLNSLTSEDSAVYYCARKYFGPFIMDYWGQGTSVTVSS VL: EIFLTQSPAIMSASPGEKVTMTCSASTTVSYAHWYQQKSGTSPKRWLYDTSKIASGIPVRFSGSGSGTSYSLTISSMEAEDAATYYCQVWSTQPYTFGGGTKLEIKR , output reported OD 450 nm.
1.15

Tell me OD 450 nm reported for Anti-cTnI 7B9 monoclonal antibody (recombinant, Sample 1) (antibody, mouse IgG1, kappa, V domains shown, Recombinant mouse antibody expressed in CHO cells; also called WT; Anti-cTnI 7B9 antibody) VH: QVQLQQSGTELAKPGASVKFSCKASDYTFSTYWMYWIKQRPGQGLEWIGYLNPSSGHTEYNQRFKDKATLTADKSSSTAYMQLNSLTSEDSAVYYCARKYFGPFAMDYWGQGTSVTVSS VL: EIFLTQSPAIMSASPGEKVTMTCSASTTVSYAHWYQQKSGTSPKRWLYDSSKIASGIPVRFSGSGSGTSYSLTISSMEAEDAATYYCQNWSTQPYTFGGGTKLEIKR
0.475

Return reported OD 450 nm. Input binder: Mutation 3 (antibody, V domains shown, other CDR sites as WT) VH: QVQLQQSGTELAKPGASVKFSCKASIYTFSTYWMYWIKQRPGQGLEWIGYLNPSSGHTGYNQRFKDKATLTADKSSSTAYMQLNSLTSEDSAVYYCARKYFGPFVMDYWGQGTSVTVSS VL: EIFLTQSPAIMSASPGEKVTMTCSASTTVSYIHWYQQKSGTSPKRWLYDTSKIASGIPVRFSGSGSGTSYSLTISSMEAEDAATYYCQRWSTQPYTFGGGTKLEIKR
0.978
